- MEASUREMENT_NOTES: Antagonist activity at CRTH2 receptor in human whole blood assessed as inhibition of PGD2-induced eosinophil shape change incubated for 20 mins prior to PGD2-challenge measured after 10 mins by flow cytometry
pIC50: −log10 of the molar value.
ENDPOINT: pIC50

- SMILES_STR: "CCCCC(=O)N(Cc1ccc2c(c1)OCCO2)c1cc(F)cc(-c2nnn[nH]2)c1"
  ENDPOINT: "pIC50"
  DATA_VALUE: 7.40

Each recorded value in this set is attributed to BindingDB's records for doi:10.1021/ml200223s.
